Assay: Phase I trial of oral PCLX-001: plasma pharmacokinetics, noncompartmental analysis (Phoenix WinNonlin 8.3)
Format: in vivo, human
Conditions: human, plasma, po, 20 mg, Table 1A; Patient 115-002-004 (Patient 3); Day 15; 20 mg oral daily

- compound: "Cc1c(NS(=O)(=O)c2c(Cl)cc(-c3ccnc(N4CCNCC4)c3)cc2Cl)c(CC(C)C)nn1C [PCLX-001]"
  Cmax, ng/mL: 295

###

Assay: Phase I trial of oral PCLX-001: plasma pharmacokinetics, noncompartmental analysis (Phoenix WinNonlin 8.3)
Type: in vivo, human
Conditions: human, plasma, po, 20 mg, Table 6; Patient 115-002-004; Day 1; 20 mg QD oral; Pantoprazole No; read-out: Half-life (converted)
Excerpt: The clinical trial is entitled “Phase I Trial of PCLX-001 in B-cell Non-Hodgkin Lymphoma and Advanced Solid Malignancies” and registered at clinicaltrials.gov as NCT04836195. It is a phase I dose-escalation study of oral PCLX-001, conducted in a multicenter, non-randomized, open-label, non-controlled design. The study is comprised of two parts: Part A (single-agent dose escalation) and Part B (single-agent expansion cohorts). […]
measurement type: half-life (h)

- smiles repr: "Cc1c(NS(=O)(=O)c2c(Cl)cc(-c3ccnc(N4CCNCC4)c3)cc2Cl)c(CC(C)C)nn1C"
  meas value: 5.51
